Overview of recorded Kd for various binders
# Tested on: MS2 coat protein, dlFG mutant (Escherichia phage MS2, UniProt P03612, del68-81insG)
# Assay explanation: 4 mM Mg2+; no ligand; RNA-MaP array; 100 mM Tris-HCl pH 7.5, 80 mM KCl, 4 mM MgCl2, 0.1 mg/mL BSA, 1 mM DTT, 0.01 mg/mL yeast tRNA, 0.01% Tween-20; protein 1.5 nM to 3 uM; 37 C (Table S3)
# Reported conditions: chain copies: 2; label: tethered by stalled RNA polymerase

| Binder | Kd |
| --- | --- |
| Eterna 9759 (Exclusion 4) (ssRNA) RNA: GUCGAGUGAGGAUAUGGUGAGUAGUGCCUGAGCGCUGCUCACCAGAAGGCACAUGAGGAUCACCCAUGUAUAGC | 16.7 nM |
| Eterna 7727988 (Exclusion - Theophylline B) (ssRNA) RNA: GGGAACUCUUACGAUACCAGCCGGAGUGAUGUUCCGCGCUUGGACGUAGUAACCCGCACCGGCCCUUGGCAGCGUGGAUCUUAUA | > 3000 nM |
| Eterna 6136258 (Same State NG 2) (ssRNA) RNA: UAAUCUCAGAUAGGAUAUAUAGGAUAACUUAAGACCUAACAUGAGGAUCACCCAUGUGAUUAUUCGUAGAAGGAUCAUUGACCC | 162 nM |
| Eterna 15621 (Same State 1) (ssRNA) RNA: GCAUCACAUGAGGAUCACCCAUGUCUUCGGAGCGGAGGAUAUGGUCACUGUAAACAGUGGCCAGAAGGCUGGAUGC | 32.4 nM |
| Eterna 6056927 (Brourd's mod of Exclusion 4) (ssRNA) RNA: GGUCCUUCUGUUAGGAUAUGCUAUGGGCUUCCGCAGUAGAAGGAACAUGAGGAUCACCCAUGUCCGAUGCCGUA | 67.5 nM |
